// provenance: PubChem BioAssay AID1159580

Test protocol: chemical genetic growth profiling, strain panel (AID 1159580);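 further: tested at 20 µM; growth read once vehicle control cultures reached saturation at 30 °C; 1 = growth at the plate median or of vehicle wells; lower values mean less growth of the strain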
Condition info: S. cerevisiae deletion strains, growth OD, locus YNL307C, strain MCK1, stronger effect = lower value
In all, about 5,500 compounds went through this assay and about 2,000 (36%) were called active. Another 18% or so got no clear call; they are omitted. The list shows a part of the results.
Measured metric: normalized growth
Respond numerically, and do not add a unit to the figure.

Compound	Value
CC1(C)C(=O)[C@@H]2O[C@@H]2[C@@]2(C)C1CC(=O)[C@]1(C)C2CC[C@@]2(C)[C@H](c3ccoc3)OC(=O)[C@H]3O[C@]321 (some centres undefined)	0.982

stdin: Provide normalized growth value for the following compound: CC[C@H]1OC(=O)[C@H](C)[C@@H](O[C@H]2C[C@@](C)(OC)[C@@H](O)[C@H](C)O2)[C@H](C)[C@@H](O[C@@H]2O[C@H](C)C[C@H](N(C)C)[C@H]2O)[C@](C)(O)C[C@@H](C)[C@@H]2N[C@@H](COCCOC)O[C@H]([C@H]2C)[C@]1(C)O
stdout: 1

stdin: Provide normalized growth value for the following compound: NC(=O)N1c2ccccc2C=Cc2ccccc21
stdout: 1

stdin: Provide normalized growth value for the following compound: COC(=O)C[C@H]1C(C)(C)[C@@H](O)[C@@H]2CC3=C4C=C(OC)O[C@@H](c5ccoc5)[C@]4(C)CCC3[C@@]1(C)C2=O (some centres undefined)
stdout: 0.98

stdin: Provide normalized growth value for the following compound: CN(C)CCc1c[nH]c2ccc(CS(=O)(=O)N3CCCC3)cc12
stdout: 0.985

stdin: Provide normalized growth value for the following compound: Cc1cc(=O)n(-c2ccccc2)n1C
stdout: 0.991

stdin: Provide normalized growth value for the following compound: NC[C@H]1O[C@H](O[C@H]2[C@H](O)[C@@H](O[C@H]3O[C@H](CO)[C@@H](O)[C@H](N)[C@H]3O)[C@H](N)C[C@@H]2N)[C@H](N)C[C@@H]1O
stdout: 1.01

stdin: Provide normalized growth value for the following compound: c1ccc([C@H]2CN3CCSC3=N2)cc1
stdout: 1.02

stdin: Provide normalized growth value for the following compound: CC1(C)C(=O)[C@@H]2C[C@@]3(O)C4=CC(=O)O[C@@H](c5ccoc5)[C@]4(C)CCC3[C@@](C)(C2=O)[C@H]1CC(=O)O (some centres undefined)
stdout: 0.99

---

Parameter normalized growth: see the listing below.
Test protocol: chemical genetic growth profiling, strain panel (AID 1159580)
Condition info: S. cerevisiae deletion strains, growth OD, locus YBR021W, strain FUR4, stronger effect = lower value
About 2,000 (36%) of roughly 5,500 compounds were called active. Not shown: some 18% with an inconclusive outcome. Some of the results follow.
Respond numerically, and do not add a unit to the figure.

Consider the worked cases shown below.
Molecule	normalized growth
CC[C@@H](CO)NC(=O)[C@@H]1C=C2c3cccc4[nH]cc(c34)C[C@H]2N(C)C1	1
CN[C@@H]1[C@@H](O[C@H]2O[C@H](CO)[C@@H](N)[C@H](O)[C@H]2O)O[C@H]2C[C@@H](N)[C@H](O[C@H]3[C@H](O)[C@@H](O)[C@H](N)C[C@@H]3N)O[C@@H]2[C@@H]1O	1.01
COc1cccc(OC)c1C(=O)N[C@@H]1C(=O)N2[C@@H]1SC(C)(C)[C@@H]2C(=O)O	1.01
O=c1[nH]cnc2c1ncn2C1O[C@H](CO)[C@@H](O)[C@H]1O (stereo partly specified)	1
COc1cccc(O)c1O	1.02

stdin: Provide normalized growth value for the following molecule: CC1=CC(=O)C2=C(C)CC(O)C3C(C)C(=O)OC3C12 (stereo unspecified)
stdout: 1.01

---

Test protocol: chemical genetic growth profiling, strain panel (AID 1159580)
Condition info: S. cerevisiae deletion strains, growth OD, locus YGR078C, strain PAC10, stronger effect = lower value
The whole screen tested about 5,500 compounds, of which about 2,000 (36%) were called active. Another 18% or so got no clear call; they are omitted. This is one part of the list.
Rule: measured normalized growth below 1 gets MET; anything equal to or greater than 1 gets NOT MET.

Completed entries (count: 2):
Molecule	Class assignment
COC1(C)CCC2OC2(C)CCC2C1CC2(C)C (stereo not drawn)	NOT MET
COC(=O)c1scc(S(=O)(=O)C(C)C)c1N/N=C(/C#N)C(=O)c1ccccc1	MET

stdin: normalized growth under 1? Item: Cc1ccc(OCc2nnc(SCC(=O)c3ccc(F)cc3)n2-c2ccccc2)c2c1CCC2
stdout: MET

---

Test protocol: chemical genetic growth profiling, strain panel (AID 1159580);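 further: tested at 20 µM; growth read once vehicle control cultures reached saturation at 30 °C; 1 = growth at the plate median or of vehicle wells; lower values mean less growth of the strain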
Condition info: S. cerevisiae deletion strains, growth OD, locus YLR262C, strain YPT6 (second series), stronger effect = lower value
Out of some 5,500 compounds screened, about 2,000 (36%) were called active. Another 18% or so got no clear call; they are omitted. The list shows a part of the results.
Measured metric: normalized growth
Respond numerically, and do not add a unit to the figure.

Compound	normalized growth
NCCNCCNCCN	0.985
O=c1c(O)c(-c2ccc(O)c(O)c2)oc2cc(O)ccc12	0.981
O=C1c2ccccc2C(=O)C1c1ccccc1	1
COc1ccc(C2C(=O)c3ccccc3C2=O)cc1	0.987
CNS(=O)(=O)c1ccc(NC(=O)c2ccccc2C(=O)O)cc1	0.992

stdin: Provide normalized growth value for the following compound: c1ccc([C@H]2CN3CCSC3=N2)cc1
stdout: 0.999

stdin: Provide normalized growth value for the following compound: Cc1c(NC(=O)c2cccnc2)c(=O)n(-c2ccccc2)n1C
stdout: 1.02

stdin: Provide normalized growth value for the following compound: COc1cnc(NS(=O)(=O)c2ccc(N)cc2)nc1
stdout: 1.02

stdin: Provide normalized growth value for the following compound: CC1(C)C(=O)[C@@H]2C[C@@]3(O)C4=CC(=O)O[C@@H](c5ccoc5)[C@]4(C)CCC3[C@@](C)(C2=O)[C@H]1CC(=O)O (stereo not given in full)
stdout: 1.01

stdin: Provide normalized growth value for the following compound: CO[C@H]1C[C@H](O[C@H]2[C@H](C)[C@@H](OC3O[C@H](C)C[C@H](N(C)C)[C@H]3OC(C)=O)[C@@H](C)C[C@]3(CO3)C(=O)[C@H](C)[C@@H](OC(C)=O)[C@@H](C)[C@@H](C)OC(=O)[C@@H]2C)O[C@@H](C)[C@@H]1OC(C)=O (stereo not given in full)
stdout: 0.983

---

Test protocol: chemical genetic growth profiling, strain panel (AID 1159580);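 further: tested at 20 µM; growth read once vehicle control cultures reached saturation at 30 °C; 1 = growth at the plate median or of vehicle wells; lower values mean less growth of the strain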
Condition info: S. cerevisiae deletion strains, growth OD, locus YOR231W, strain MKK1, stronger effect = lower value
About 2,000 (36%) of roughly 5,500 compounds were called active. Another 18% or so got no clear call; they are omitted. The list shows a part of the results. Where a SMILES comes first, the peptide text is derived from it. [ ]: non-standard residue; d: D form. Orn = NCCC[CH](N)C(=O)O
Parameter normalized growth: see the listing below.
Respond numerically, and do not add a unit to the figure.

Consider the worked cases shown below.
Molecule	normalized growth
CCCCCN(CCCCC)C(=O)C(CCC(=O)O)NC(=O)c1ccc(Cl)c(Cl)c1 (stereo not drawn)	0.983
CC(=O)OCC(=O)[C@@]1(O)CCC2C3CCC4=CC(=O)CC[C@]4(C)C3[C@@H](O)C[C@@]21C (stereo partly drawn)	0.992
O=C(CCBr)N1CCN(C(=O)CCBr)CC1	0.985
O=C(O)c1cc(=O)c2cccc(O)c2[nH]1	0.982
CC(C)CC1NC(=O)C(CCCN)NC(=O)C(C(C)C)NC(=O)C2CCCN2C(=O)C(Cc2ccccc2)NC(=O)C(CC(C)C)NC(=O)C(CCCN)NC(=O)C(C(C)C)NC(=O)C2CCCN2C(=O)C(Cc2ccccc2)NC1=O (stereo not drawn) (cyclo(FPV[Orn]LFPV[Orn]L); configuration not given here)	0.983

stdin: Provide normalized growth value for the following molecule: C[C@]12CCC(=O)C=C1CCC1C2C(=O)C[C@@]2(C)C1CC[C@]2(O)C(=O)CO (stereo partly drawn)
stdout: 0.985

stdin: Provide normalized growth value for the following molecule: O=C(O)[C@H](O)[C@@](O)(Cc1ccc(O)cc1)C(=O)O
stdout: 1.02

stdin: Provide normalized growth value for the following molecule: CN1CCN(CCC=C2c3ccccc3Sc3ccc(S(=O)(=O)N(C)C)cc32)CC1
stdout: 0.984

---

Test protocol: chemical genetic growth profiling, strain panel (AID 1159580);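 further: tested at 20 µM; growth read once vehicle control cultures reached saturation at 30 °C; 1 = growth at the plate median or of vehicle wells; lower values mean less growth of the strain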
Condition info: S. cerevisiae deletion strains, growth OD, locus YDR502C, strain sam2, stronger effect = lower value
The whole screen tested about 5,500 compounds, of which about 2,000 (36%) were called active. Roughly 18% stayed inconclusive and do not appear here. This is one part of the list.
Measured metric: normalized growth
Respond numerically, and do not add a unit to the figure.

Consider the worked cases shown below.
> print(dat)
                                   compound  value
1  CN1C(=O)CCS(=O)(=O)C1c1ccc(Cl)cc1 (stereo not drawn)   1.01
2                            COc1cccc(O)c1O   1.01

Lab note: next compound to report on.
stdin: Provide normalized growth value for the following compound: C[C@]12CCC(=O)C=C1CCC1C2C(=O)C[C@@]2(C)C1CC[C@]2(O)C(=O)CO (stereo partly drawn)
stdout: 1.01
